The values you see were collected from patent US4214093A.

Target: Human Cl Esterase (Homo sapiens, UniProt P09871)
Sequence (P09871 438-688 limits assumed): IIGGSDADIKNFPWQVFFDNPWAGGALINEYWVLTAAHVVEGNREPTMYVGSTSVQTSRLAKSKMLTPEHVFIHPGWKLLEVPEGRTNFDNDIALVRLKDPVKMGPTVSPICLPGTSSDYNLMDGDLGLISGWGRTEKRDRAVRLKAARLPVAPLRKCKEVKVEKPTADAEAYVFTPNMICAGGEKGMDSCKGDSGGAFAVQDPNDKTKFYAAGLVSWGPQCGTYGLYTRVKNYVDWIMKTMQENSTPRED
Sequence (P09871 16-437 partner limits assumed): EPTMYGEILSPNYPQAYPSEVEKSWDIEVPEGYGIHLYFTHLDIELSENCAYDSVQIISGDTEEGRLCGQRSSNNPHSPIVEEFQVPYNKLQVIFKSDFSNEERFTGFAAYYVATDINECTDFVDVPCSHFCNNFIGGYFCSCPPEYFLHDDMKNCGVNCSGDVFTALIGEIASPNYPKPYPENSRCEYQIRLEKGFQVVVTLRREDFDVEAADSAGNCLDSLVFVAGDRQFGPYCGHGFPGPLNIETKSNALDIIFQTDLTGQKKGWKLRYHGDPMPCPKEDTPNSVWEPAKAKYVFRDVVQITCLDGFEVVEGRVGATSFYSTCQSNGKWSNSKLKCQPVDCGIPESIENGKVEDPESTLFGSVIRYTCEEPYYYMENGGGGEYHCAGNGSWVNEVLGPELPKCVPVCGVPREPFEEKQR
Test: Inhibitory effect on ester-hydrolyzing activity of human Cl esterase (ATEe substrate)
Type: biochemical
Conditions: at 10^-3 M; in vitro, ATEe; read-out: Cl-esterase percent inhibition
Quantity name: inhibition at 1000 µM

# example entries with known answers
compound="CCOC(=O)c1ccc(OC(=O)C2CCCc3ccc(N)cc32)cc1 (centres unmarked)" reported_measurement=3.2%
compound="COC(=O)c1cccc(OC(=O)C2CCCc3c(N)cccc32)c1 (centres unmarked)" reported_measurement="< 3.2%"
compound="CCOC(=O)COC(=O)c1ccc(OC(=O)C2CCCc3ccc(N)cc32)cc1 (centres unmarked)" reported_measurement="< 3.2%"
compound="Nc1cccc2c1CCCC2C(=O)Oc1ccc(OC(=O)C2CCCc3c(N)cccc32)cc1 (centres unmarked)" reported_measurement=15.2%
compound="CCCOC(=O)c1ccc(OC(=O)C2CCCc3ccc(N)cc32)cc1 (centres unmarked)" reported_measurement="< 3.2%"
compound="CCCOC(=O)c1ccc(OC(=O)C2CCCc3c(N)cccc32)cc1 (centres unmarked)" reported_measurement="< 3.2%"
compound="CCOC(=O)COC(=O)c1ccc(OC(=O)C2CCCc3c(N)cccc32)cc1 (centres unmarked)" reported_measurement="< 3.2%"

--- query ---
## Input Quick one: give measured inhibition at 1000 µM for Nc1ccc2c(c1)C(C(=O)Oc1ccc(OC(=O)C3CCCc4ccc(N)cc43)cc1)CCC2 (centres unmarked)
## Output 31%
